target: pY705-STAT3 in PBMC (Homo sapiens); construct: Cryopreserved Peripheral Blood Mononuclear Cells (PBMC) are from AllCells; host or cells: cryopreserved PBMC; experiment: MSD-pSTAT-PBMC Assay (pSTAT3, IL-6 stimulated); format: cell-based; settings: PBMC, compound 3 hrs, then 10 ng/mL IL-6 for 10 min; Table 115; read-out: STAT3
Sequence (P40763 whole entry): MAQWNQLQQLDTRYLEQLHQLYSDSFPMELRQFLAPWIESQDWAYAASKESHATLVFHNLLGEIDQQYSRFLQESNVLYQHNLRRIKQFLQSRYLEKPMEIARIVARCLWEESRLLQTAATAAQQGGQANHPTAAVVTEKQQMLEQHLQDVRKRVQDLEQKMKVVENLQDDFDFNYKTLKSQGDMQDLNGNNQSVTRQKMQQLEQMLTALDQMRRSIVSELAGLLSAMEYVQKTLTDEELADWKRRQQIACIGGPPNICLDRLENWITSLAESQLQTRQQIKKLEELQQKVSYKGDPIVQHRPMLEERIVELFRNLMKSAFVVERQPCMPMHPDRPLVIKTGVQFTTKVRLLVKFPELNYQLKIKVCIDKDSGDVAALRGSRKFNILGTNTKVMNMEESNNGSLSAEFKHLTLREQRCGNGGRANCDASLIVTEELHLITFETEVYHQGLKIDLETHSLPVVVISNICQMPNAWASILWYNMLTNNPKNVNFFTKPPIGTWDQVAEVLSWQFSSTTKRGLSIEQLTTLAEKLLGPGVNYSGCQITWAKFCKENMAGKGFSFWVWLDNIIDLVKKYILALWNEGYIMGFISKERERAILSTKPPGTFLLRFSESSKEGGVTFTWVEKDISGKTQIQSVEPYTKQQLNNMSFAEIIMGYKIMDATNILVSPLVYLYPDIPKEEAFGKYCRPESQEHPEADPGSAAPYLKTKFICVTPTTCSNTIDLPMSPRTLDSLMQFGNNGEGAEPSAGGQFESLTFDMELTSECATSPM
Measured IC50 by item

{"MOLECULE": "CCCOC(=O)[C@H](C)NP(=O)(Cc1ccc2sc(C(=O)N[C@H]3CCC[C@H]4CC[C@@H](C(=O)N5CCC(c6cccnc6)C5)N4C3=O)cc2c1)Oc1ccccc1 (stereo partly shown)", "TEST TARGET": "pY705-STAT3 in PBMC (Homo sapiens)", "IC50": "1000 to 3000 nM"}

-- ask I would be grateful if you could share the reported IC50 for CCCOC(=O)[C@H](C)NP(=O)(Oc1ccccc1)[C@H](F)c1ccc2sc(C(=O)N[C@H]3CCC[C@H]4CC[C@@H](C(=O)N5C[C@H](c6cccnc6)[C@@H](C#N)C56CC6)N4C3=O)cc2c1 (single isomer, unassigned) .
-- reply > 3000 nM

-- ask Which value of IC50 has been reported for CCCOC(=O)[C@H](C)N[P@@](=O)(Oc1ccccc1)[C@@H](F)c1ccc2sc(C(=O)N[C@H]3C[C@@H](C)C[C@H]4CC[C@@H](C(=O)N5CC(c6cnccc6C)C5)N4C3=O)cc2c1 (single isomer, unassigned) [Compound 1036] in the records?
-- reply < 100 nM

-- ask Dear colleague, I am looking for the recorded IC50 of the following molecule: CCCOC(=O)[C@H](C)NP(=O)(Cc1ccc2sc(C(=O)N[C@H]3CCC[C@H]4CC[C@@H](C(=O)N5CC(c6cccnc6)C5)N4C3=O)cc2c1)N1CCCC1=O (stereo partly shown)
-- reply 1000 to 3000 nM
